- System: Acetylcholinesterase (Homo sapiens) (UniProt P22303)
- Sequence (P22303 whole entry, looked up): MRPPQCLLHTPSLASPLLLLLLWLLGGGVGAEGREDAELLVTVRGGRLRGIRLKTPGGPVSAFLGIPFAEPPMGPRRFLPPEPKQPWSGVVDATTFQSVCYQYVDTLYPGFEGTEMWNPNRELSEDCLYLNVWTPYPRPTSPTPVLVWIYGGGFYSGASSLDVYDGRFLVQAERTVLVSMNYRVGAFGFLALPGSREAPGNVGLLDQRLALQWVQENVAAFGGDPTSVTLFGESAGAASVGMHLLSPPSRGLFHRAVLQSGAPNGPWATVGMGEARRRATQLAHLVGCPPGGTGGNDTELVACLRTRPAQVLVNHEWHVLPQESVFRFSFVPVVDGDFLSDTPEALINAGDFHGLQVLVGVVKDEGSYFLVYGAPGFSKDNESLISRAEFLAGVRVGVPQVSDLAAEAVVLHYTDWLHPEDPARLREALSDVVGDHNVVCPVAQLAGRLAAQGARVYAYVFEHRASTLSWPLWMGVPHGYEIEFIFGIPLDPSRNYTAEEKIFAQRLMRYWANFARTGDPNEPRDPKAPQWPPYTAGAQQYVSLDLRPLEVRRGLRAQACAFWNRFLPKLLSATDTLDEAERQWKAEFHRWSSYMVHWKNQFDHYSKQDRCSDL
- Method: Acetylcholinesterase (AChE) small molecule antagonists: enzyme-based qHTS assay with human liver microsomes (AID 1347399); also: nearly all actives have a fitted effect of over 60% in size
- Measurement Context: qHTS inhibition; series mostly up to 115 µM
Active and inactive are the calls of the source. Calls follow the shape of the full dose curve.
Choose the fitting class; nothing outside active, inactive is accepted.

For this compound, state the assay outcome: CC1Sc2c(C(=O)O)c(=O)c3cc(F)c(N4CCNCC4)cc3n21 (centres undefined)
inactive

Please indicate how the test categorized `O=C(O)C(F)(F)C(F)(F)C(F)(F)C(F)(F)C(F)(F)C(F)(F)C(F)(F)C(F)(F)C(F)(F)F` .
inactive

// outcome(item) with item = `CCCCOC(=O)c1ccccc1C(=O)OCc1ccccc1`
inactive

Please indicate how the test categorized `c1ccc(C2CC2)c(OCC2=NCCN2)c1` .
inactive

Fill in: this test's call for `O=[N+]([O-])c1ccc(F)c([N+](=O)[O-])c1` is ___
inactive

Check the results log: what was the call for `CCCCCCC#N` ?
inactive

Please let me know the test result on file for `CCO[C@H]1O[C@@H]2OC3(C)CC[C@H]4[C@H](C)CC[C@@H]([C@H]1C)[C@@]24OO3` .
inactive

Recorded call for `CCOP(=S)(OCC)SCSCC` ?
inactive

Which outcome was entered for the compound CN1C(=O)NC(=O)C(C)(C2=CCCCC2)C1=O (centres undefined) in this test?
inactive

Record request — test call for `CCCCN(N=O)C(=N)N[N+](=O)[O-]`
inactive

# outcome recorded in this test, key = CNC(C)Cc1ccccc1OC (centres undefined)
inactive

Short answer needed: outcome of this test for `O=C(O)COc1ccc(Cl)cc1` ?
inactive

Fill in: this test's call for `O=C1C(=O)c2cccc3cccc1c23` is ___
inactive

Entry `O=C(C(Cl)(Cl)Cl)C(Cl)(Cl)Cl` : call = ?
inactive

Record request — test call for `CO/N=C(/C(=O)OC)c1ccccc1COc1ccccc1C`
inactive

Hey, what did the test say about `OCCCBr` ?
inactive

In this assay, the call recorded for `COc1nn(C(=O)NS(=O)(=O)c2ccccc2OC(F)(F)F)c(=O)n1C` was what?
inactive

For this compound, state the assay outcome: `COC(=O)C(Cl)C(=O)OC`
inactive

# lookup: test call for `O=C(O)c1ccccc1C(=O)Nc1cccc2ccccc12`
inactive

Hi, sorry to bother you, what did the test record for `CC(c1ccc(O)cc1)(c1ccc(O)cc1)c1ccc(O)cc1` ?
inactive

I would be grateful if you could indicate the recorded call for `O=C(CBr)c1ccccc1` .
inactive

Would you mind telling me which call this test gave `N#Cc1ccc(Cl)cc1` ?
inactive

Hi team, can someone confirm the assay call for `CCCN(CCC)c1c([N+](=O)[O-])cc(S(C)(=O)=O)cc1[N+](=O)[O-]` ?
inactive

Test call, this compound: `O=[N+]([O-])c1ccccc1CCl`
inactive

Any idea what this test logged for `O=C(Nc1ccccc1)Nc1cnns1` ?
inactive

Please indicate how the test categorized `CC(Cl)Cl` .
inactive

Which outcome was assigned to `CCOS(C)(=O)=O` in this test?
inactive

Tell me the recorded outcome of this test for `C=C(C#N)CCC#N` .
inactive

Record request — test call for `Cc1ccc2ccccc2c1`
inactive

Which outcome was entered for the compound O=C(O)CC(Cl)C(=O)O (centres undefined) in this test?
inactive

What did this assay record as the result for O=C1C(Cl)C(CCl)CN1c1cccc(C(F)(F)F)c1 (centres undefined) ?
inactive

// outcome(item) with item = `Nc1ccc([N+](=O)[O-])cc1[N+](=O)[O-]`
inactive

What did this assay record as the result for CC1(C)CCC(Cc2ccc(Cl)cc2)C1(O)Cn1cncn1 (centres undefined) ?
inactive

What was the test verdict on CCC(Cl)CCl (centres undefined) ?
inactive

Can you look up the reported call for `CC(C)(OO)c1ccccc1` for me?
inactive

Assay result, entry `Clc1cccc2ccccc12` — outcome?
inactive

Returns: the outcome recorded for `CCOC(=O)COc1cc(-c2nn(C)c(OC(F)F)c2Cl)c(F)cc1Cl` in this assay.
inactive

# fetch the recorded call for `Clc1cc(Cl)c(Cl)c(Cl)c1` here
inactive

What did this assay record as the result for `COC1=CC(=O)O[C@@H](CCc2ccccc2)C1` ?
inactive

Test call for this compound, please: COP(=S)(Oc1cc(Cl)c(Br)cc1Cl)c1ccccc1 (centres undefined)
active

Given CN1[C@@H]2CC[C@H]1CC(OC(=O)c1cc(Cl)cc(Cl)c1)C2 (some centres undefined) , state the outcome it received in this test.
inactive

What is the recorded call for this compound in the test? `COP(=S)(OC)Oc1cc(Cl)c(I)cc1Cl`
inactive

Entry `O=C(NC(=O)c1c(F)cccc1F)Nc1cc(Cl)c(Oc2ncc(C(F)(F)F)cc2Cl)c(Cl)c1` : call = ?
inactive

Please state the recorded outcome for this compound: `c1cc2ccc3cccc4ccc(c1)c2c34`
inactive

Which outcome was entered for the compound `O=C1c2ccccc2C(=O)C1C(=O)C(c1ccccc1)c1ccccc1` in this test?
inactive

Which outcome did this test record for the compound CC1CC(CC2CCC(N)C(C)C2)CCC1N (centres undefined) ?
inactive

Hi team, can someone confirm the assay call for CC(C)(C)C(O)C(Oc1ccc(Cl)cc1)n1cncn1 (centres undefined) ?
inactive

So what was the verdict on `CN1C[C@H](CNC(=O)OCc2ccccc2)C[C@@H]2c3cccc4c3c(cn4C)C[C@H]21` in this test?
active

// param item: `CCOc1nc(F)cc2nc(S(=O)(=O)Nc3c(Cl)cccc3Cl)nn12` ; yields the recorded call
inactive

What was the test verdict on `O=S1(=O)OC(c2cc(Br)c(O)c(Br)c2)(c2cc(Br)c(O)c(Br)c2)c2ccccc21` ?
inactive

Status in this test for `C=CC[C@]1(O)CC[C@H]2[C@@H]3CCC4=CC(=O)CCC4=C3C=C[C@@]21C` ?
inactive

What was the test verdict on `CC(C)N(C(=O)COc1nnc(C(F)(F)F)s1)c1ccc(F)cc1` ?
inactive

I'd appreciate the recorded outcome for `CS/C(C)=N/OC(=O)N(C)SN(C)C(=O)O/N=C(\C)SC` from this test.
active

I'd appreciate the recorded outcome for `CCC(Br)(CC)C(=O)NC(N)=O` from this test.
inactive

Data provenance: PubChem BioAssay (Tox21)
